These data points were gathered from patent US20230414780A1.

For each record, write down the corresponding koff.
- targetEntity: T1, rhesus monkey TfR ectodomain fused to a mouse IgG1 Fc fragment (rhesus monkey, UniProt I0FKY7 89-760)
- T1 construct: extracellular domain; not shown: mouse IgG1 Fc fragment
- protocolNotes: SPR, kinetic
Answers are plain numbers, in s⁻¹.

Some solved entries appear below for comparison.
B8^V16 (VHH) VHH: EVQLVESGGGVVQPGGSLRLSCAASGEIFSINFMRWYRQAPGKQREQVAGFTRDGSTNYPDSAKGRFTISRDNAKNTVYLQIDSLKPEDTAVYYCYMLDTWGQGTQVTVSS: 0.0438
B8^V32 (VHH) VHH: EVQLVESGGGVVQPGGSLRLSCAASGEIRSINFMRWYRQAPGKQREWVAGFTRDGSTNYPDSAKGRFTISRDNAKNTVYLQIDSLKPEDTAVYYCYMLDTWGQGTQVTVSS: 0.0418
B8^V37 (VHH) VHH: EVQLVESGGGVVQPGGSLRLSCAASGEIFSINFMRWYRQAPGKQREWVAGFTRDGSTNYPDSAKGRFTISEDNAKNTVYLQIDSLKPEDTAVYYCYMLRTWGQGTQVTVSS: 0.103
C5^V27 (VHH) VHH: EVQLVESGGGVVQPGGSLKLSCVASGADFSINYIRWYRQAPGKQREFVAGFTATGNTNYADSMKGRFTISRDNTKNAVYLQIDSLKPEDTAVYYCYMLDKWGQGTQVTVSS: 0.0278

Hey, can you go through the list below and give me koff for every item?
1. B8^V33 (VHH) VHH: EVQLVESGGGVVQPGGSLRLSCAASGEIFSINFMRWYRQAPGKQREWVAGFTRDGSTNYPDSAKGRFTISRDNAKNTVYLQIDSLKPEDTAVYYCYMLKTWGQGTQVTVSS
2. B8^V29 (VHH) VHH: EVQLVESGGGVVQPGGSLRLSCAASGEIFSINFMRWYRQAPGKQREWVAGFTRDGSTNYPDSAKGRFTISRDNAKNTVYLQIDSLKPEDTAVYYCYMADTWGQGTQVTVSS
3. C5^V32 (VHH) VHH: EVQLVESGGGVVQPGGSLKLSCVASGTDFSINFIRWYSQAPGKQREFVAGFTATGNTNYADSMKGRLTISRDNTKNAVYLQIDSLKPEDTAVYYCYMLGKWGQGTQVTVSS
4. C5^V31 (VHH) VHH: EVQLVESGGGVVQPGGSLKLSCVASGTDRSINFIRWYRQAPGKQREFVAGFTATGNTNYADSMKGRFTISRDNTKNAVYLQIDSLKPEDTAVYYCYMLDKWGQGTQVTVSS
5. B8^V39 (VHH) VHH: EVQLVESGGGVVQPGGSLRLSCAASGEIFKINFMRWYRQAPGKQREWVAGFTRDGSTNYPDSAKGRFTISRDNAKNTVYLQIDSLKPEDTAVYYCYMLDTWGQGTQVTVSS

Result:
1: 0.0509; 2: 0.0942; 3: 0.266; 4: 0.123; 5: 0.0327
